Experimental system: rat 5HT2a receptor (Rattus norvegicus)
Construct: expressed in transfected cells; host or cells: NIH 3T3 mouse cells
Sequence (P14842 whole entry): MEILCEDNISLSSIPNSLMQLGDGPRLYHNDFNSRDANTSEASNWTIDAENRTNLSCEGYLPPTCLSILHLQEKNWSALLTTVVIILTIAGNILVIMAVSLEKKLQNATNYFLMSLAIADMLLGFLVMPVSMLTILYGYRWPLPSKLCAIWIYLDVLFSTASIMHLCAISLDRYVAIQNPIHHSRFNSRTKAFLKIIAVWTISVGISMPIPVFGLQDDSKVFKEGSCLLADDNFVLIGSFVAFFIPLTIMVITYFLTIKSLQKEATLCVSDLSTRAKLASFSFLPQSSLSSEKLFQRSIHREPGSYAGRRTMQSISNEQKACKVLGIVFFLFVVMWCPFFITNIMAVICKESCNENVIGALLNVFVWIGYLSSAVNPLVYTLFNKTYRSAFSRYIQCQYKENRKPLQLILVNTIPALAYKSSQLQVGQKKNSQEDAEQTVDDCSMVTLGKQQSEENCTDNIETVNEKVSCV
Assay procedure: 5HT2a Binding Procedure (competition binding using 125I-DOI, membranes of transfected NIH 3T3 mouse cells)
Condition: receptor binding, 5HT2a; read-out: 2aKi
Observable: pKi
Note on units: pKi is unitless, being -log10 of a concentration expressed in mol/L.

Here's what some known entries look like.
Which pKi is listed for C[C@@H]1CNCCN1c1ccc2c(n1)[C@@H](OCc1cccc(C#N)c1)CC2 [Example 2A-4] ?
7.47

Also Fc1cc2c(c(O[C@H]3CCc4ccc(N5CCNCC5)nc43)c1)CCC2 [Example 3A-76] ?
8.55

// next entry
Which pKi is listed for C[C@@H]1CNCCN1c1ccc2c(n1)[C@@H](Oc1ccccc1F)CC2 [Example 4A-4] ?
8.38

* * *

Experimental system: human 5HT2c receptor (Homo sapiens, UniProt P28335)
Construct: expressed in transfected cells; host or cells: Swiss 3T3 mouse cells (ATCC)
Assay procedure: 5HT2c Binding Procedure (competition binding against 3H-5HT, membranes of transfected Swiss 3T3 mouse cells)
Observable: Ki
Give the figure together with its unit, number first.

Short answer please: Ki, human 5HT2c receptor (Homo sapiens, UniProt P28335), entry c1ccc2c(O[C@H]3CCc4ccc(N5CCNCC5)nc43)cncc2c1
17.9 nM

More entries:
Short answer please: Ki, human 5HT2c receptor (Homo sapiens, UniProt P28335), entry Fc1ccc(F)c(CO[C@H]2CCc3ccc(N4CCNCC4)nc32)c1
26.6 nM

* * *

Ki overview
Experimental system: human 5HT2c receptor (Homo sapiens, UniProt P28335)
Construct: expressed in transfected cells; host or cells: Swiss 3T3 mouse cells (ATCC)
Sequence (P28335 33-458): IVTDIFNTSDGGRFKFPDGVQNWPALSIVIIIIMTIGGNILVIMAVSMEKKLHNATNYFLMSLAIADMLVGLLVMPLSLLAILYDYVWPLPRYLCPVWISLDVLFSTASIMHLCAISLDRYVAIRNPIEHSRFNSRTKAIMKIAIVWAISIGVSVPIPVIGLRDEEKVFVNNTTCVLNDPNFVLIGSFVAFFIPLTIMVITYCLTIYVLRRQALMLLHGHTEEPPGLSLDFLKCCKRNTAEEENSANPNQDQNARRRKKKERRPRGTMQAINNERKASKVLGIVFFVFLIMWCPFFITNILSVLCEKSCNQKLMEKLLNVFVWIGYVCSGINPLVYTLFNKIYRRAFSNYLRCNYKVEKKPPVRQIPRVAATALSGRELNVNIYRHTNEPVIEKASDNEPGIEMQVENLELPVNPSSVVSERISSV
Assay procedure: 5HT2c Binding Procedure (competition binding against 3H-5HT, membranes of transfected Swiss 3T3 mouse cells)
Condition: receptor binding, 5HT2c; read-out: 2cKi
Give the value, in units of nM, as a plain number.

Here's what some known entries look like.
Short answer please: Ki, human 5HT2c receptor (Homo sapiens, UniProt P28335), entry C[C@@H]1CNCCN1c1ccc2c(n1)[C@@H](Oc1ccccc1F)CC2
5.11

Also C[C@@H]1CNCCN1c1ccc2c(n1)[C@@H](OCc1cccc(C#N)c1)CC2 ?
6.9

More entries:
Short answer please: Ki, human 5HT2c receptor (Homo sapiens, UniProt P28335), entry Fc1cc2c(c(O[C@H]3CCc4ccc(N5CCNCC5)nc43)c1)CCC2
3
